Assign Affinity increase to each entry below.
systemUnderTest: T1, AFP158/HLA-A*02:01 complex (human)
T1 construct: flowed as analyte in SPR
assayComment: SPR, fold vs AS170036 VL1VH1
Put down the number, then write its unit next to it.

Answered cases to consult:
- binder: "AS170036 VL1VH1-VHG108A (scFv) scFv: QSALTQPRSVSGSPGQSVTISCAGTSSDVGSENYVSWYQQHPGKAPKLMIYQVNKRASGVPDRFSGSKSGNTASLTISGLQAEDEADYYCASYRSSDHNIVFGGGTKLTVLGGGGSGGGGSGGGGSEVQLVESGGGLVQPGGSLRLSCAASGFTFSSYAMSWVRQAPGKGLEWVSTINSGTGSPYYADSVKGRFTISRDNSKNTLYLQMNSLRAEDTAVYYCAKNFFDGSWFLAPPAMDYWGQGTLVTVSSHHHHHH"
  observedResult: "5.5 fold"
- binder: "AS170036 VL1VH1 (scFv, Crude scFv from E. coli TG1 supernatant; also called AS170036 VL1VH1 scFv) scFv: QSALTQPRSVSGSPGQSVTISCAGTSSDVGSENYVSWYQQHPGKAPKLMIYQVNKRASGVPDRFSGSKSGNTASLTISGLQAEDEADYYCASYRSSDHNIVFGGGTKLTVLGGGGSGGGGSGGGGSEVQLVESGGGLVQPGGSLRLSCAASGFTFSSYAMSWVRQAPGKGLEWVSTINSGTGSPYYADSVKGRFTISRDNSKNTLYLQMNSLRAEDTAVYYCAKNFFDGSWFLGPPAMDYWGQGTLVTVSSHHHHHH"
  observedResult: "1 fold"
- binder: "AS170036 VL1VH1-VLH98I (scFv) scFv: QSALTQPRSVSGSPGQSVTISCAGTSSDVGSENYVSWYQQHPGKAPKLMIYQVNKRASGVPDRFSGSKSGNTASLTISGLQAEDEADYYCASYRSSDINIVFGGGTKLTVLGGGGSGGGGSGGGGSEVQLVESGGGLVQPGGSLRLSCAASGFTFSSYAMSWVRQAPGKGLEWVSTINSGTGSPYYADSVKGRFTISRDNSKNTLYLQMNSLRAEDTAVYYCAKNFFDGSWFLGPPAMDYWGQGTLVTVSSHHHHHH"
  observedResult: "3.1 fold"
- binder: "AS170036 VL1VH1-VHS57H (scFv) scFv: QSALTQPRSVSGSPGQSVTISCAGTSSDVGSENYVSWYQQHPGKAPKLMIYQVNKRASGVPDRFSGSKSGNTASLTISGLQAEDEADYYCASYRSSDHNIVFGGGTKLTVLGGGGSGGGGSGGGGSEVQLVESGGGLVQPGGSLRLSCAASGFTFSSYAMSWVRQAPGKGLEWVSTINSGTGHPYYADSVKGRFTISRDNSKNTLYLQMNSLRAEDTAVYYCAKNFFDGSWFLGPPAMDYWGQGTLVTVSSHHHHHH"
  observedResult: "6.9 fold"

Affinity increase reported for this binder AS170036 VL1VH1-VLH98Q (scFv) scFv: QSALTQPRSVSGSPGQSVTISCAGTSSDVGSENYVSWYQQHPGKAPKLMIYQVNKRASGVPDRFSGSKSGNTASLTISGLQAEDEADYYCASYRSSDQNIVFGGGTKLTVLGGGGSGGGGSGGGGSEVQLVESGGGLVQPGGSLRLSCAASGFTFSSYAMSWVRQAPGKGLEWVSTINSGTGSPYYADSVKGRFTISRDNSKNTLYLQMNSLRAEDTAVYYCAKNFFDGSWFLGPPAMDYWGQGTLVTVSSHHHHHH : 3.3 fold

These measurements were taken from patent US20240279318A1.
